# System Under Test: UniProt Q16644
# Test Description: MK-3 inhibition IC50 (similar method to MK-2, with appropriate modifications)
# Assay type: biochemical
# Conditions Used: Table 2, pyrazolylpyrazole MK-2 inhibitors; read-out: MK-3 Avg. IC50
The following molecules are listed with their measured IC50 values.
Give the number; µM is assumed, so skip it.

Here's what some known entries look like.
So, "CSc1n[nH]c2c1-c1nn(CCCN)c(C(=O)O)c1CC2" ? Its IC50 was 47

So, "CCOC(=O)c1nn(CC(F)(F)F)c2c1CCc1[nH]ncc1-2" ? Its IC50 was 124

So, "C=CCSc1n[nH]c2c1-c1nn(CCCN)c(C(=O)O)c1CC2" ? Its IC50 was 41.4

So, "CCOC(=O)c1c2c(nn1CCCNCCc1ccc(Br)cc1)-c1cn[nH]c1CC2" ? Its IC50 was 68.1

So, "NCCn1nc2c(c1C(=O)O)CCc1[nH]ncc1-2" ? Its IC50 was 63.3

So, "O=C(O)c1c2c(nn1CCCNCCc1ccsc1)-c1cn[nH]c1CC2" ? Its IC50 was 48.5

So, "CONC(=O)c1[nH]nc2c1CCc1[nH]ncc1-2" ? Its IC50 was 180

So, "C=CCSc1n[nH]c2c1-c1nn3c(c1CC2)C(=O)NCCC3" ? Its IC50 was 55.6

So, "NCCCn1nc2c(c1C(=O)O)CCc1[nH]ncc1-2" ? Its IC50 was 35.3

Next up:
So, "CCOC(=O)c1c2c(nn1CCCN)-c1cn[nH]c1CC2" ? Its IC50 was 186

====

# System Under Test: MK-3 (Homo sapiens, UniProt Q16644)
# Sequence (Q16644 whole entry, species assumed): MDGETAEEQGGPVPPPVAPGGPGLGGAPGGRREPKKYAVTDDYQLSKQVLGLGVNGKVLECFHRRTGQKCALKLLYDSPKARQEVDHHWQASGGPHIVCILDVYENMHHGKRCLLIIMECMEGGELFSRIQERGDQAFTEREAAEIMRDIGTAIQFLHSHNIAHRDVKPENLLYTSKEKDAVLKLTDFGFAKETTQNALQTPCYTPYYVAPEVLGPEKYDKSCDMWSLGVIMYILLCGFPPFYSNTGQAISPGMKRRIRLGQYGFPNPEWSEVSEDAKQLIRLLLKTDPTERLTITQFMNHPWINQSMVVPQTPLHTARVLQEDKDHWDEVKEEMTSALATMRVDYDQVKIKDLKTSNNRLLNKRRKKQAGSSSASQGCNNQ
# Test Description: MK-3 inhibition IC50 (similar method to MK-2, with appropriate modifications)
# Type: biochemical
# Conditions Used: read-out: MK-3 Avg. IC50
The following molecules are listed with their measured IC50 values.
Give the number; µM is assumed, so skip it.

Here's what some known entries look like.
So, O=C(O)c1c2c(nn1CCCNCCc1ccc(-c3ccoc3)cc1)-c1ccncc1CC2 [Example 23] ? Its IC50 was 2.62

So, O=C(O)c1ccc(-c2ccc(CCNCCCn3nc4c(c3C(=O)O)CCc3cnccc3-4)cc2)cc1 [Example 18] ? Its IC50 was 2.18

So, O=C(O)c1c2c(nn1CCCNCCc1ccc(-c3ccccc3)cc1)-c1ccncc1CC2 [Example 44] ? Its IC50 was 5.01

Next:
So, COc1ccc(CCNCCCn2nc3c(c2C(=O)O)CCc2cnccc2-3)cc1OC [Example 100] ? Its IC50 was 48.1

So, NCCCn1nc2c(c1C(=O)NO)CCc1cnc(-c3cnc4ccccc4c3)cc1-2 [Example 28] ? Its IC50 was 4.67

So, O=C1NCCCn2nc3c(c21)CCc1cnc(-c2cnc4ccccc4c2)cc1-3 [Example 30] ? Its IC50 was 11.9

====

# System Under Test: UniProt P49137
# Sequence (P49137 whole entry, species assumed): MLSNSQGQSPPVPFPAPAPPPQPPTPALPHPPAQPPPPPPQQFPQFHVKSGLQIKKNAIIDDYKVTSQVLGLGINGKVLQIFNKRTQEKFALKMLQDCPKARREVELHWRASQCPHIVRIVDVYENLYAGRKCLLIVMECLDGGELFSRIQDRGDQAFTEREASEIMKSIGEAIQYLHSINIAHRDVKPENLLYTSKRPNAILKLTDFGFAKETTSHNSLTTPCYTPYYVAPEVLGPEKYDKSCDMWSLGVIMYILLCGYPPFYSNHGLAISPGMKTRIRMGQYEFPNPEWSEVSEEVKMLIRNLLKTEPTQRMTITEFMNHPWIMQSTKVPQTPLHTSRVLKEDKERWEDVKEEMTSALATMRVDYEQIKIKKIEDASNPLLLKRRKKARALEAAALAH
# Test Description: Determination of MK-2 IC50 (HSP-peptide phosphorylation, anion exchange resin capture assay)
# Type: biochemical
# Conditions Used: Table 1, phenoxypyrazole MK-2 inhibitors; read-out: MK-2 Avg, IC50
Property Measured: IC50

Here's what some known entries look like.
So, "Nc1cc2c(cc1O)CCc1c-2nn2c1C(=O)NCCC2" ? Its IC50 was 88.7 µM

So, "NCCCn1nc2c(c1C(=O)O)CCc1cc(O)c(Br)cc1-2" ? Its IC50 was 3.75 µM

So, "COc1cc2c(cc1-c1ccncc1)-c1nn(CCCNC(=O)OC(C)(C)C)c(C(=O)O)c1CC2" ? Its IC50 was 165 µM

So, CC1Cc2c(nn(CCCN)c2C(=O)O)-c2ccc(O)cc21 (centres unmarked) ? Its IC50 was 10.7 µM

So, "COc1ccc2c(c1)CCc1c(C(=O)O)nn(-c3ccc(Cl)cc3)c1-2" ? Its IC50 was > 200 µM

So, "O=C(O)c1[nH]nc2c1CCc1cc(O)c(O)cc1-2" ? Its IC50 was 28.3 µM

So, "COc1ccc2c(c1)CCc1c-2n[nH]c1C(=O)NN" ? Its IC50 was > 200 µM

So, "COC(=O)c1c2c(nn1CCNC(=O)OC(C)(C)C)-c1cc(Br)c(OC)cc1CC2" ? Its IC50 was > 200 µM

Next:
So, "NCCCn1nc2c(c1C(=O)O)CCc1cc(O)c(CCC(F)(F)F)cc1-2" ? Its IC50 was 8.11 µM

So, "COc1ccc2c(c1)CCc1c(C(=O)O)nn(-c3ccc(S(N)(=O)=O)cc3)c1-2" ? Its IC50 was > 200 µM

So, "COC(=O)c1[nH]nc2c1CCc1cc(O)ccc1-2" ? Its IC50 was > 200 µM

So, "Cn1nc(C(=O)O)c2c1-c1ccc(O)cc1CC2" ? Its IC50 was 56.2 µM

So, CC1Cc2c(n[nH]c2C(=O)O)-c2ccc(O)cc21 (centres unmarked) ? Its IC50 was 97.1 µM
